Assay: ovarian cancer cell viability with rucaparib, profiling panel, oncology-focused library, rucaparib conditional (AID 1508598)
Settings: patient-derived ovarian cancer cells, CellTiter-Glo viability, 144 h; at 5 µM; OCI-P5x cells; without rucaparib; stronger effect = lower value
readout_name: viability (%)
Write it as a number; the unit % goes unstated.

- molecule: "CN(C)c1nc(N(C)C)nc(N(C)C)n1"
  readout_name: "viability"
  data_value: 98.6
- molecule: "O=C(O[C@@H]1Cc2c(O)cc(O)cc2O[C@@H]1c1cc(O)c(O)c(O)c1)c1cc(O)c(O)c(O)c1"
  readout_name: "viability"
  data_value: 92.1
- molecule: "O=C(CCc1ccc(O)cc1)c1c(O)cc(O)cc1O"
  readout_name: "viability"
  data_value: 111
- molecule: "Nc1cccc2c1CN(C1CCC(=O)NC1=O)C2=O (stereo unspecified)"
  readout_name: "viability"
  data_value: 110
- molecule: "COc1nc(N)nc2c1ncn2[C@@H]1O[C@H](CO)[C@@H](O)[C@@H]1O"
  readout_name: "viability"
  data_value: 90

-- ask Using known records, supply viability for `O=c1[nH]c(=O)n([C@H]2CCCO2)cc1F`
-- reply 94.3

-- ask Using known records, supply viability for `CC/C(=C(\c1ccccc1)c1ccc(OCCN(C)C)cc1)c1ccccc1`
-- reply 101

-- ask Using known records, supply viability for `CCCC(CCC)C(=O)O`
-- reply 112

-- ask Using known records, supply viability for `COc1cc2ncnc(Nc3ccc(F)c(Cl)c3)c2cc1OCCCN1CCOCC1`
-- reply 99.3

-- ask Using known records, supply viability for `Cc1ccc(Nc2nccc(N(C)c3ccc4c(C)n(C)nc4c3)n2)cc1S(N)(=O)=O`
-- reply 86

-- ask Using known records, supply viability for `CN1CC[C@H](c2c(O)cc(O)c3c(=O)cc(-c4ccccc4Cl)oc23)[C@H](O)C1`
-- reply 10.5

* * *

Assay: growth inhibition of RCMB18 medulloblastoma cells, cell-based, cisplatin and BGB IC40 combos (AID 1671462);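 also: cells exposed to compound for four days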
Details: measured here: BGB IC40 combination, at 0.05 µM, stronger effect = higher value
Use rule met when the recorded inhibition is no lower than -10%; use rule not met when it is lower.

- compound: "COc1c2ccoc2cc2oc(=O)ccc12"
  label_class: "rule met"

-- ask Could you tell me if the measured inhibition of `O=C(CCCCCCC(=O)Nc1ccccc1)NO` reaches -10% or more?
-- reply rule not met

-- ask Could you tell me if the measured inhibition of `CN1C[C@@H]2C[C@H]1CN2c1cc2c(cc1F)c(=O)c(C(=O)O)cn2C1CC1` reaches -10% or more?
-- reply rule not met

-- ask Could you tell me if the measured inhibition of `CCn1nc(C(=O)O)c(=O)c2cc3c(cc21)OCO3` reaches -10% or more?
-- reply rule not met

-- ask Could you tell me if the measured inhibition of `N=c1ccn2c(n1)O[C@H]1[C@H](O)[C@@H](CO)O[C@H]12` reaches -10% or more?
-- reply rule not met

-- ask Could you tell me if the measured inhibition of CN(N=O)C(=O)NC1C(O)OC(CO)C(O)C1O (configuration not stated) reaches -10% or more?
-- reply rule not met

-- ask Could you tell me if the measured inhibition of CNC1CCCN(c2c(F)cc3c(=O)c(C(=O)O)cn(C4CC4)c3c2OC)C1 (configuration not stated) reaches -10% or more?
-- reply rule met

-- ask Could you tell me if the measured inhibition of `CN1CCN(c2c(F)cc3c(=O)c(C(=O)O)cn4c3c2OCN4C)CC1` reaches -10% or more?
-- reply rule not met

-- ask Could you tell me if the measured inhibition of `O=c1cc[nH]c(=O)[nH]1` reaches -10% or more?
-- reply rule met

-- ask Could you tell me if the measured inhibition of `Cc1ccc2nc(N)[nH]c(=O)c2c1Sc1ccncc1` reaches -10% or more?
-- reply rule not met

-- ask Could you tell me if the measured inhibition of `C[C@@H](CN1CC(=O)NC(=O)C1)N1CC(=O)NC(=O)C1` reaches -10% or more?
-- reply rule met

* * *

Assay: growth inhibition of DIPG glioma cells, dose response, cell-based, JHH-DIPG-1, MIPE4.0, CellTiter-Glo, qHTS (AID 1347062);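 as to AC50: cells exposed to compound for two days before readout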
Settings: JHH-DIPG-1 viability, CellTiter-Glo ATP luminescence
Records with an inconclusive call do not appear. The source made the active and inactive calls. No cut-off is given here; in the data, nearly all actives have AC50 up to about 27 µM.
Returns: one label drawn from YES for active, NO for inactive

Worked set:
- compound: "C[C@H](CCC(=O)O)[C@H]1CC[C@H]2[C@@H]3[C@@H](O)C[C@@H]4C[C@H](O)CC[C@]4(C)[C@H]3CC[C@]12C"
  label_class: "YES"
- compound: "COc1ccc2cc([C@H](C)C(=O)O)ccc2c1"
  label_class: "NO"
- compound: "O=c1cc(-c2ccc(O)cc2)oc2cc(O)cc(O)c12"
  label_class: "YES"
- compound: "CCCCCCCCCCCCCCCCCCCCCCO"
  label_class: "NO"

-- ask Called result for `COc1cc(O)c2c(c1)C(=O)c1cc(C)cc(O)c1C2=O`
-- reply NO

-- ask Called result for `O=c1c(-c2ccc(O)cc2)coc2cc(O)ccc12`
-- reply NO

-- ask Called result for `CN(c1nccc(=O)[nH]1)C1CCN(c2nc3ccccc3n2Cc2ccc(F)cc2)CC1`
-- reply NO

-- ask Called result for `O=C(CCc1ccc(O)cc1)c1c(O)cc(O)cc1O[C@@H]1O[C@H](CO)[C@@H](O)[C@H](O)[C@H]1O`
-- reply NO

-- ask Called result for `O=c1c(O)c(-c2ccc(O)cc2O)oc2cc(O)cc(O)c12`
-- reply NO

-- ask Called result for COC(=O)C1=C(C)NC(C)=C(C(=O)OCCCN2CCC(c3ccccc3)(c3ccccc3)CC2)C1c1cccc([N+](=O)[O-])c1 (stereo not given)
-- reply NO

* * *

Target: Calcium-activated potassium channel subunit alpha-1 (Homo sapiens) + Leucine-rich repeat-containing protein 26 (Homo sapiens) (UniProt Q12791+Q2I0M4)
Sequence (Q2I0M4 whole entry, looked up, one chain of several): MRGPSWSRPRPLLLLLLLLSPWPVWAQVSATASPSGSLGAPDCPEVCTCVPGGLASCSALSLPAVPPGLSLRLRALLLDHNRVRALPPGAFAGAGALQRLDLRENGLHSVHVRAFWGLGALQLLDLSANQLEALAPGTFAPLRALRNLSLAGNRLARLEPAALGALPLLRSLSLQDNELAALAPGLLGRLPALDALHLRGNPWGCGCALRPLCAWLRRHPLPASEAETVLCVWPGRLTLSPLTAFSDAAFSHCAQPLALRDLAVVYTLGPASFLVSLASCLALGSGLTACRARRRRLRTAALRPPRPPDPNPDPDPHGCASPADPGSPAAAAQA
Test: modulators of BK channel variants, profiling panel, selectivity assay, cell-based, U2OS BacMam, thallium flux, beta subunits (AID 1259406);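 also: initial slope of Thallos dye fluorescence rise after thallium is added; log ratio against the mean of 0.3% DMSO vehicle wells on the same plate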
Settings: F380Y/Slo1WT/gamma1, at 30 µM
readout_name: log fold change Tl+ flux
// return just the number, without any unit appended

Observe how each entry below is paired with its result.
- compound: "C[C@]12CC[C@@H]3c4ccc(O)cc4CC[C@H]3[C@@H]1CC[C@@H]2O"
  log fold change Tl+ flux: 0.072
- compound: "C[N+]1(C)CCCC(OC(=O)C(O)(c2ccccc2)c2ccccc2)C1 (stereo not given)"
  log fold change Tl+ flux: -0.0154
- compound: "CN(C)C(=O)C(CCN1CCC(O)(c2ccc(Cl)cc2)CC1)(c1ccccc1)c1ccccc1"
  log fold change Tl+ flux: -0.0267
- compound: "Clc1ccccc1CN1CCc2sccc2C1"
  log fold change Tl+ flux: -0.00222
- compound: "C[C@H]1COc2c(N3CCN(C)CC3)c(F)cc3c(=O)c(C(=O)O)cn1c23"
  log fold change Tl+ flux: 0.00221

-- ask Using known records, supply log fold change Tl+ flux for CCc1ccc(CCOc2ccc(CC3SC(=O)NC3=O)cc2)nc1 (stereo not given)
-- reply 0.0101

-- ask Using known records, supply log fold change Tl+ flux for `COc1ccc(/C=C/C(=O)Nc2ccccc2C(=O)O)cc1OC`
-- reply -0.0322

* * *

Listed next: entries and their corresponding viability decrease (inhibition).
Test: CellTiter-Glo luminescent readout of SW480 viability loss, NPC library primary (AID 1117343)
Details: CellTiter-Glo luminescence; at 20 µM (top of the series) unless noted
Write it as a number; the unit % goes unstated.

Observe how each entry below is paired with its result.
- compound: "COc1c2occc2cc2ccc(=O)oc12"
  viability decrease (inhibition) [%]: 26.9
- compound: "CCN(CC)CCOc1ccc(Cc2ccccc2)cc1"
  viability decrease (inhibition) [%]: 83.4
- compound: "Cc1cc(OI)c(C(C)C)cc1-c1cc(C(C)C)c(OI)cc1C"
  viability decrease (inhibition) [%]: 10.4
- compound: "NC(=O)C1(N2CCCCC2)CCN(CCCC(=O)c2ccc(F)cc2)CC1"
  viability decrease (inhibition) [%]: 12.8
- compound: "CCOC(=O)[C@H](CCc1ccccc1)N[C@@H](C)C(=O)N1Cc2cc(OC)c(OC)cc2C[C@H]1C(=O)O"
  viability decrease (inhibition) [%]: -2.3
- compound: "CC(=O)N[C@@H](CC(C)C)C(=O)O"
  viability decrease (inhibition) [%]: 28

-- ask Using known records, supply viability decrease (inhibition) for `N#Cc1cc(NC(=O)C(=O)O)c(Cl)c(NC(=O)C(=O)O)c1`
-- reply 25.7

-- ask Using known records, supply viability decrease (inhibition) for CC(C(=O)O)c1cccc(C(=O)c2ccccc2)c1 (stereo not given)
-- reply 1.9

-- ask Using known records, supply viability decrease (inhibition) for CC1=C(C(=O)OC(C)C)C(c2cccc([N+](=O)[O-])c2)C(C(=O)OC2CN(C(c3ccccc3)c3ccccc3)C2)=C(N)N1 (stereo not given)
-- reply 133

-- ask Using known records, supply viability decrease (inhibition) for COC(=O)C1=C(C)NC(C)=C(C(=O)OC(C)(C)CN(C)CCC(c2ccccc2)c2ccccc2)C1c1cccc([N+](=O)[O-])c1 (stereo not given)
-- reply 127
